target: HLA-A0201 (Homo sapiens, UniProt P04439, D140Y/D185E/D98H/E176V/E277Q/G131W/G231S/I119V/I121R/I166T/I218V/L300P/L318F/N151K/N90K/P208A/P217A/Q86G/Q94H/R138H/R169H/T345S); format: binding; note: test concentration or dose not given here
ENDPOINT NAME: % inhibition at T=4H and T=24H FP 4h

(Q) Entry [am-phg][NVA]AGIGILT[PRG] : reported % inhibition at T=4H and T=24H FP 4h = ?
(A) 67%

(Q) Entry [CSME]AAGIGI[4-FPHE]TV : reported % inhibition at T=4H and T=24H FP 4h = ?
(A) 63%

(Q) Entry [PHG]AAGIGI[4-FPHE]T[NLE] : reported % inhibition at T=4H and T=24H FP 4h = ?
(A) 63%

(Q) Entry [CSME][2-AOC]KDVEERV : reported % inhibition at T=4H and T=24H FP 4h = ?
(A) 60%

(Q) Entry [am-phg][NVA]YDFFVWL : reported % inhibition at T=4H and T=24H FP 4h = ?
(A) 79%

(Q) Entry [PHG]I[NLE]GFVFTL : reported % inhibition at T=4H and T=24H FP 4h = ?
(A) 86%
